# test target: acetylcholinesterase (AChE) (Electrophorus electricus, UniProt O42275)
# Sequence (O42275 24-633): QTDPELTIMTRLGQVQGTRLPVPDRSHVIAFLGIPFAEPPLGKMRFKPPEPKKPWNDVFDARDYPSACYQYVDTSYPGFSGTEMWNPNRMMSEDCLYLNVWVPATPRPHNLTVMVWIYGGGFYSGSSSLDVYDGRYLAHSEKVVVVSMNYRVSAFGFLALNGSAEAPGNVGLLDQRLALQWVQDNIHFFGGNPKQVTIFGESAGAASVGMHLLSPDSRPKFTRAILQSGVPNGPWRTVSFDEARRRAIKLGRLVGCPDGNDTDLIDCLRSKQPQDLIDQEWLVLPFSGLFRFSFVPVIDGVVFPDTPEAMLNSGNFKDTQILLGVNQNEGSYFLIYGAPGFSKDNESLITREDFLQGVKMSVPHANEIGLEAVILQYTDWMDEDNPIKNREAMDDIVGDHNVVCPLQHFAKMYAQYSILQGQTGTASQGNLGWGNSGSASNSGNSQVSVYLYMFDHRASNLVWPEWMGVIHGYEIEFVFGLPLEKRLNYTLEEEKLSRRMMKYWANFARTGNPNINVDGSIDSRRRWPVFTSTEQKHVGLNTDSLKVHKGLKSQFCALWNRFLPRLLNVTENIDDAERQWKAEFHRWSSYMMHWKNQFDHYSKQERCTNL
# test: modified Ellman spectrophotometric assay with isolated enzyme
pIC50: −log10 of the molar value.
reported endpoint: pIC50

INSERT INTO measurements (smiles_text, readout_value) VALUES
  ('Clc1cc2c3c(c4c(nc3c1)CCCC4)NCCN2', 7.73);
